TGT: human alanine aminopeptidase (HsAPN) (Homo sapiens)
Construct: purchased R&D Systems
PROTOCOL_TEXT: Inhibition of recombinant human APN, fluorogenic substrate Ala-AMC
Format: biochemical
CONDITION_CONTEXT: TRIS buffer, 37°C; average with standard deviation, at least three experiments; read-out: IC50 HsAPN
IC50 listing for selected molecules.
Could you give the number and then its unit, please?

Nc1cc2nc3ccccc3oc-2cc1=O = 63 µM

Kindly review the next molecule as well.
Req: Look at this molecule and give its reported IC50. Cc1c2oc3c(C)ccc(C(=O)O)c3nc-2c(C(=O)O)c(N)c1=O
Resp: 7.25 µM

###

TGT: human alanine aminopeptidase (HsAPN) (Homo sapiens, UniProt P15144)
Construct: purchased R&D Systems
Sequence (P15144 whole entry): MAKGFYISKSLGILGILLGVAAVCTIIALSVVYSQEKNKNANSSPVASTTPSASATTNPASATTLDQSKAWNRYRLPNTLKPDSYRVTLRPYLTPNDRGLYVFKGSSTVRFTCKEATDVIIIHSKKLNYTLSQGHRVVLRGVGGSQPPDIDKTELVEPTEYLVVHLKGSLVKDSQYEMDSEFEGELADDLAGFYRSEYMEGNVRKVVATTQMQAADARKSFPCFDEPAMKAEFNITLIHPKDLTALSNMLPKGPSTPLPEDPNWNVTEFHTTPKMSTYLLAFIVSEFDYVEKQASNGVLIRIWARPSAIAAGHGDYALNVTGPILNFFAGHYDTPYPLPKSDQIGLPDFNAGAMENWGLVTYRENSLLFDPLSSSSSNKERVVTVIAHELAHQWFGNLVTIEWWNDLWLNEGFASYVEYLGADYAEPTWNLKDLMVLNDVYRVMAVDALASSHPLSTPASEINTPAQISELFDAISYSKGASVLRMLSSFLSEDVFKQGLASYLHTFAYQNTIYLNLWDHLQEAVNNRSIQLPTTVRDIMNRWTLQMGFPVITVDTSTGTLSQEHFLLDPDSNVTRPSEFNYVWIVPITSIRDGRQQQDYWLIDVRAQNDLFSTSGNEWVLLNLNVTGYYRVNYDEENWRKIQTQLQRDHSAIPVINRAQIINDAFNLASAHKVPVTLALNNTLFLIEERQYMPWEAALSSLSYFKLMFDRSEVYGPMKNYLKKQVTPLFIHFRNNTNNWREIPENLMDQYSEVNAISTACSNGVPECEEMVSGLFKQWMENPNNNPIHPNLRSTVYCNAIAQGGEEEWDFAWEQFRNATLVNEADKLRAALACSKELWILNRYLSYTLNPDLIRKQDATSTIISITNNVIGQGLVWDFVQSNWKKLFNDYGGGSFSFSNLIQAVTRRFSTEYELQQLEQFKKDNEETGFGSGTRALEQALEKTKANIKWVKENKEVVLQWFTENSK
PROTOCOL_TEXT: Inhibition of recombinant human APN, fluorogenic substrate Ala-AMC
Assay type: biochemical
CONDITION_CONTEXT: from Lineweaver-Burk and Dixon plots
Starred links: 1 amine or outer side, 2 acyl side, 3 side chain; linkers in the order of their positions; H or OH if unused. Positions of bridges follow the written chain, without caps; N, C: chain ends. Non-standard residues stand in square brackets, D forms with d. Residues, ends and D or L forms follow the SMILES beside them. Chains are numbered I, II in the order given. Actinocin(1to9) = Cc1c2oc3c(C)ccc(C(=O)[*:2])c3nc-2c(C(=O)[*:1])c(N)c1=O; Actinocin(9to1) = Cc1c2oc3c(C)ccc(C(=O)[*:1])c3nc-2c(C(=O)[*:2])c(N)c1=O; Pro(4-oxo) = O=C1CN[C@H](C(=O)O)C1; NMeV = CN[C@H](C(=O)O)C(C)C; Sar = CNCC(=O)O
ATTRIBUTE_MEASURED: mechanism of inhibition of HsAPN

Cc1c2oc3c(C)ccc(C(=O)N[C@@H]4C(=O)N[C@H](C(C)C)C(=O)N5CCC[C@H]5C(=O)N(C)CC(=O)N(C)[C@@H](C(C)C)C(=O)O[C@@H]4C)c3nc-2c(C(=O)N[C@@H]2C(=O)N[C@H](C(C)C)C(=O)N3CC(=O)C[C@H]3C(=O)N(C)CC(=O)N(C)[C@@H](C(C)C)C(=O)O[C@@H]2C)c(N)c1=O [Actinomycin X2, reference compound] (I: T[dV][Pro(4-oxo)][Sar][NMeV] / II: T[dV]P[Sar][NMeV]; ester I:1-I:C, II:1-II:C; linker I:N-II:N via Actinocin(1to9)) = non-competitive
Nc1cc2nc3ccccc3oc-2cc1=O [Questiomycin A] = competitive
Cc1c2oc3c(C)ccc(C(=O)N[C@@H]4C(=O)N[C@H](C(C)C)C(=O)N5CCC[C@H]5C(=O)N(C)CC(=O)N(C)[C@@H](C(C)C)C(=O)O[C@@H]4C)c3nc-2c(C(=O)N[C@@H]2C(=O)N[C@H](C(C)C)C(=O)N3CCC[C@H]3C(=O)N(C)CC(=O)N(C)[C@@H](C(C)C)C(=O)O[C@@H]2C)c(N)c1=O [Actinomycin D] (I: T[dV]P[Sar][NMeV] / II: T[dV]P[Sar][NMeV]; ester I:1-I:C, II:1-II:C; linker I:N-II:N via Actinocin(9to1)) = non-competitive
Cc1c2oc3c(C)ccc(C(=O)O)c3nc-2c(C(=O)O)c(N)c1=O [Actinocin] = competitive

The reported numbers originate from paper PMC6047675.
